biological target: T1, human amyloid-β peptide Aβ(1-40) (human); experiment: ELISA, 25 µg/ml peptide immobilized, excess εACA, anti-GST detection
T1 construct: also called hAβ(1-40); amyloid-β(1-40)
T1 sequence (peptide, as listed by the source): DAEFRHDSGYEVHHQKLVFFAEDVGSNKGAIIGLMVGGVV
pKd: −log10 of the molar value.
Endpoint Name: pKd

[
  {
    "Binder": "tPA-F-EGF-GST (finger and EGF domains of human tPA with C-terminal GST tag) (other, UniProt P00750 36-122, looked up, domain: F-EGF; also called F-EGF-tPA; not shown: vector residues and thrombin cleavage site; Schistosoma japonicum glutathion-S-transferase (GST) tag) SYQVICRDEKTQMIYQQHQSWLRPVLRSNRVEYCWCNSGRAQCHSVPVKSCSEPRCFNGGTCQQALYFSDFVCQCPEGFAGKCCEID",
    "Assay Result": 8.70
  }
]
